Ki values, listed per item
biological target: Dimer of Gag-Pol polyprotein [489-587] (Human immunodeficiency virus 1, UniProt P12497); construct: 489-587; experiment: Protease Inhibition Assay; settings: pH 5; 22 °C

| compound | system | unitsText | inequalitySymbol | Ki |
| --- | --- | --- | --- | --- |
| CCCC1(CCc2ccccc2)CC(=O)C(C(c2cccc(NS(=O)(=O)c3ccc(C#N)cn3)c2)C(C)(C)C)C(=O)O1 (stereo not drawn) | Dimer of Gag-Pol polyprotein [489-587] (Human immunodeficiency virus 1, UniProt P12497) | nM | = | 1.9 |
| CCCC1(CCC)CC(=O)C(C(c2cccc(NS(=O)(=O)c3cn(C)cn3)c2)C(C)(C)C)C(=O)O1 (stereo not drawn) | Dimer of Gag-Pol polyprotein [489-587] (Human immunodeficiency virus 1, UniProt P12497) | nM | = | 0.87 |
| CCCC1(CCC)CC(=O)C(C(CC)c2cccc(NS(=O)(=O)c3cn(C)cn3)c2)C(=O)O1 (stereo not drawn) | Dimer of Gag-Pol polyprotein [489-587] (Human immunodeficiency virus 1, UniProt P12497) | nM | = | 1.8 |
| CCC(c1cccc(NS(=O)(=O)c2cn(C)cn2)c1)C1C(=O)CC2(OC1=O)C1CC3CC(C1)CC2C3 (stereo not drawn) | Dimer of Gag-Pol polyprotein [489-587] (Human immunodeficiency virus 1, UniProt P12497) | nM | = | 23 |
| CCC(c1cccc(NS(=O)(=O)c2cn(C)cn2)c1)C1C(=O)CC(CCC2CC2)(CCC2CC2)OC1=O (stereo not drawn) | Dimer of Gag-Pol polyprotein [489-587] (Human immunodeficiency virus 1, UniProt P12497) | nM | = | 1.7 |
| CCCC1(CCC)CC(=O)C(C(c2cccc(NS(=O)(=O)c3cn(C)cn3)c2)C2CC2)C(=O)O1 (stereo not drawn) | Dimer of Gag-Pol polyprotein [489-587] (Human immunodeficiency virus 1, UniProt P12497) | nM | = | 0.52 |
| CCCC1(CCc2ccccc2)CC(=O)C(C(CC)c2cccc(NS(=O)(=O)c3ccc(C#N)cc3)c2)C(=O)O1 (stereo not drawn) | Dimer of Gag-Pol polyprotein [489-587] (Human immunodeficiency virus 1, UniProt P12497) | nM | = | 8.2 |
| CCCC1(CCc2ccccc2)CC(=O)C(Cc2cccc(NS(=O)(=O)c3cn(C)cn3)c2)C(=O)O1 (stereo not drawn) | Dimer of Gag-Pol polyprotein [489-587] (Human immunodeficiency virus 1, UniProt P12497) | nM | = | 13 |
| CCCC1(CCc2ccc(F)cc2)CC(=O)C(C(CC)c2cccc(NS(=O)(=O)c3cn(C)cn3)c2)C(=O)O1 (stereo not drawn) | Dimer of Gag-Pol polyprotein [489-587] (Human immunodeficiency virus 1, UniProt P12497) | nM | = | 3 |
| CCCC1(CCc2ccccc2)CC(=O)C(C(c2cccc(NS(=O)(=O)c3cn(C)cn3)c2)C2CC2)C(=O)O1 (stereo not drawn) | Dimer of Gag-Pol polyprotein [489-587] (Human immunodeficiency virus 1, UniProt P12497) | nM | = | 0.71 |
| CCC(c1cccc(NS(=O)(=O)c2cn(C)cn2)c1)C1C(=O)CC(COCCOCCOC)(COCCOCCOC)OC1=O (stereo not drawn) | Dimer of Gag-Pol polyprotein [489-587] (Human immunodeficiency virus 1, UniProt P12497) | nM | = | 28 |
| CCC(c1cccc(NS(=O)(=O)c2cn(C)cn2)c1)C1C(=O)CC(CC(C)C)(CC(C)C)OC1=O (stereo not drawn) | Dimer of Gag-Pol polyprotein [489-587] (Human immunodeficiency virus 1, UniProt P12497) | nM | = | 3 |
| CCCC1(CCc2ccccc2)CC(=O)C(C(c2cccc(NS(=O)(=O)c3ccc(C(F)(F)F)cn3)c2)C(C)(C)C)C(=O)O1 (stereo not drawn) | Dimer of Gag-Pol polyprotein [489-587] (Human immunodeficiency virus 1, UniProt P12497) | nM | = | 4.3 |
| CCCC1(CCc2ccccc2)CC(=O)C(C(c2cccc(NS(=O)(=O)c3cn(C)cn3)c2)C(C)(C)C)C(=O)O1 (stereo not drawn) | Dimer of Gag-Pol polyprotein [489-587] (Human immunodeficiency virus 1, UniProt P12497) | nM | = | 1.2 |
| CCC(c1cccc(NS(=O)(=O)c2cn(C)cn2)c1)C1C(=O)CC(CCc2ccccc2)(CCc2ccccc2)OC1=O (stereo not drawn) | Dimer of Gag-Pol polyprotein [489-587] (Human immunodeficiency virus 1, UniProt P12497) | nM | = | 1 |
| CCCC1(CCc2ccccc2)CC(=O)C(C(c2cccc(NS(=O)(=O)c3ccc([N+](=O)[O-])cn3)c2)C(C)(C)C)C(=O)O1 (stereo not drawn) | Dimer of Gag-Pol polyprotein [489-587] (Human immunodeficiency virus 1, UniProt P12497) | nM | = | 2.3 |
| CCCC1(CCc2ccccc2)CC(=O)C(C(CC)c2cccc(NS(=O)(=O)CCC)c2)C(=O)O1 (stereo not drawn) | Dimer of Gag-Pol polyprotein [489-587] (Human immunodeficiency virus 1, UniProt P12497) | nM | > | 1000 |
| CCCC1(CCc2ccccc2)CC(=O)C(C(c2cccc(NS(=O)(=O)c3ccc(C#N)cc3)c2)C(C)(C)C)C(=O)O1 (stereo not drawn) | Dimer of Gag-Pol polyprotein [489-587] (Human immunodeficiency virus 1, UniProt P12497) | nM | = | 12 |

These measurements were taken from BindingDB's records for doi:10.1021/jm9802158.
